src = patent US11512053B2

# study.system: full-length human PRMT8 isoform 1 (Homo sapiens, UniProt Q9NR22)
# Sequence (Q9NR22 whole entry, canonical isoform): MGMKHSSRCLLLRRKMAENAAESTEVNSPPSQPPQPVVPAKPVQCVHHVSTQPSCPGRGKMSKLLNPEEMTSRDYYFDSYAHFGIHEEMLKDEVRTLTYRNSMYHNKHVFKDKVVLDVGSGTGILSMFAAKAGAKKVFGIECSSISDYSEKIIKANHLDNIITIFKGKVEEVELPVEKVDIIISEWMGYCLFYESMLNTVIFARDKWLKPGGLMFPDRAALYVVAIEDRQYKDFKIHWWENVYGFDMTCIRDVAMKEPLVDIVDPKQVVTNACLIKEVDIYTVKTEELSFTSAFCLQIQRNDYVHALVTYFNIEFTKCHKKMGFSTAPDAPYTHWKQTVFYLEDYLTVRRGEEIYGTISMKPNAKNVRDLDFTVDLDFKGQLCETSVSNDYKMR
# method.notes: PRMT8 Biochemical Assay (3H-SAM Flashplate, peptide substrate)
# experimental.parameters: single experiment or average of multiple experiments; read-out: Biochemical IC50 PRMT8
Listed next: entries and their corresponding pIC50.
# log scale: pIC50 equals minus log10 of the concentration in mol/L

Field: example entries. Status: answers known.
CNCCN(C)Cc1c[nH]nc1C1CCC2(CC1)NC(=O)N(C)C2=O (stereo not shown) | 7.63
CNCCN(C)Cc1c[nH]nc1C1CCN(C(=O)Cc2ccccc2)CC1 | 6.11
CCN(C(=O)CCOc1ccccc1)[C@H]1CC[C@@H](c2n[nH]cc2CN(C)CCNC)CC1 | 7.99
CNCCN(C)Cc1c[nH]nc1C1CCC(C)(C)[C@@H](C(=O)NCC(C)C)C1 (stereo partly shown) | 7.20
CN(CCN)Cc1c[nH]nc1C1=CCCC1 | 5.54

Please report the recorded pIC50 for CN(CCN)Cc1n[nH]cc1C1CCC(N2CCOCC2)CC1 (stereo not shown) .
7.20

pIC50 for CCC(=O)N(CC1CCOCC1)[C@H]1CC[C@@H](c2n[nH]cc2CN(C)CCNC)CC1 ?
6.60

Quick one: pIC50 for CCN(C(=O)CC1CCOCC1)[C@H]1CC[C@H](c2n[nH]cc2CN(C)CCNC)CC1 ?
7.45

Given CC1CCC(c2n[nH]cc2CN(C)CCN)CC1 (stereo not shown) , state its recorded pIC50.
6.89

pIC50 lookup needed for CNCCN(C)Cc1c[nH]nc1C1CCC2(CC1)C(=O)NC(=O)N2C (stereo not shown) , thanks.
7.43
